Tested on: Jurkat (T-Lymphoblastic Leukemia)
Assay: Bliss excess, mean over the matrix (fraction); higher = more synergy

molecule: COc1cccc(OCCCN)c1-c1cc(Nc2cnc(C#N)cn2)n[nH]1 [Prexasertib] + CCc1c2c(nc3ccc(O)cc13)-c1cc3c(c(=O)n1C2)COC(=O)[C@]3(O)CC [SN-38] (first compound max 1 µM, 7x7, partner max 0.3 µM)
tgt: Jurkat (T-Lymphoblastic Leukemia)
Bliss excess: -0.005
--
molecule: Cc1c2c(nn1C)CSCc1cc(n(C)n1)CSc1cc(c3ccccc3c1)OCCCc1c(C(=O)O)n(C)c3c-2c(Cl)ccc13 [AZD5991] + CC1(C)CCC(CN2CCN(c3ccc(C(=O)NS(=O)(=O)c4ccc(NCC5CCOCC5)c([N+](=O)[O-])c4)c(Oc4cnc5[nH]ccc5c4)c3)CC2)=C(c2ccc(Cl)cc2)C1 [Venetoclax] (first compound max 1 µM, 7x7, partner max 1 µM)
tgt: Jurkat (T-Lymphoblastic Leukemia)
Bliss excess: 0.0116
--
molecule: Cc1c2c(nn1C)CSCc1cc(n(C)n1)CSc1cc(c3ccccc3c1)OCCCc1c(C(=O)O)n(C)c3c-2c(Cl)ccc13 [AZD5991] + C[C@@H](Nc1cc(F)cc(F)c1)c1cc(C(=O)N(C)C)cc2c(=O)cc(N3CCOCC3)oc12 [AZD8186] (first compound max 1 µM, 7x7, partner max 3 µM)
tgt: Jurkat (T-Lymphoblastic Leukemia)
Bliss excess: -0.0077
--
molecule: Cc1cc2ncnn2cc1Nc1ncc2c(n1)n(C1CCOCC1)c(=O)n2C [AZD7648] + C=CCn1c(=O)c2cnc(Nc3ccc(N4CCN(C)CC4)cc3)nc2n1-c1cccc(C(C)(C)O)n1 [AZD1775] (first compound max 10 µM, partner max 1 µM)
tgt: Jurkat (T-Lymphoblastic Leukemia)
Bliss excess: 0.0183

* * *

Test system: JHU-022 (Oral Cavity Carcinoma)
Test: Bliss excess, mean over the matrix (fraction); higher = more synergy

compound: CN(CCO)CC[C@H](CSc1ccccc1)Nc1ccc(S(=O)(=O)NC(=O)c2ccc(N3CCC([C@@H](O)c4ccccc4-c4ccc(Cl)cc4)CC3)cc2)cc1S(=O)(=O)C(F)(F)F [AZD4320] + Cn1cnc2c(F)c(Nc3ccc(Br)cc3Cl)c(C(=O)NOCCO)cc21 [Selumetinib] (first compound max 1 µM, 7x7, partner max 3 µM)
Bliss excess: 0.0374
//
compound: COc1cc2ncnc(Nc3ccc(F)c(Cl)c3)c2cc1OCCCN1CCOCC1 [Gefitinib] + CC(C)n1c(=O)n(C)c2cnc3cc(F)c(-c4ccc(OCCCN5CCCCC5)nc4)cc3c21 [AZD1390] (first compound max 10 µM, 7x7, partner max 0.3 µM)
Bliss excess: -0.053
//
compound: COc1nnc2ccc(N3CCC(c4ccc(OCCN5CCN(C)C(=O)[C@H]5C)cc4)CC3)nn12 [AZD5153] + C=CCn1c(=O)c2cnc(Nc3ccc(N4CCN(C)CC4)cc3)nc2n1-c1cccc(C(C)(C)O)n1 [AZD1775] (first compound max 1 µM, partner max 1 µM)
Bliss excess: -0.0698

* * *

Tested on: PEO1 (Ovarian Carcinoma)
Assay: combination Emax (second highest fraction inhibited in the dose matrix, 72 h); higher = more inhibition; extreme values may be limits of the assay
Quick list: combination Emax per entry.

compound: CCc1c2c(nc3ccc(O)cc13)-c1cc3c(c(=O)n1C2)COC(=O)[C@]3(O)CC [SN-38] + O=C(c1cc(Cc2n[nH]c(=O)c3ccccc23)ccc1F)N1CCN(C(=O)C2CC2)CC1 [Olaparib] (first compound max 0.3 µM, 7x7, partner max 10 µM)
tgt: PEO1 (Ovarian Carcinoma)
combination Emax: 0.725
--
compound: C[C@@H](Oc1cc(-c2cnn(C3CCNCC3)c2)cnc1N)c1c(Cl)ccc(F)c1Cl [Crizotinib] + CC1=C(C(=CC=C1)Cl)NC(=O)C2=CN=C(S2)NC3=CC(=NC(=N3)C)N4CCN(CC4)CCO [Dasatinib] (first compound max 10 µM, 7x7, partner max 2 µM)
tgt: PEO1 (Ovarian Carcinoma)
combination Emax: 0.532
--
compound: O=C(c1cc(Cc2n[nH]c(=O)c3ccccc23)ccc1F)N1CCN(C(=O)C2CC2)CC1 [Olaparib] + CN(CC[C@H](CSC1=CC=CC=C1)NC2=C(C=C(C=C2)S(=O)(=O)NC(=O)C3=CC=C(C=C3)N4CCC(CC4)[C@H](C5=CC=CC=C5C6=CC=C(C=C6)Cl)O)S(=O)(=O)C(F)(F)F)CCO [AZD4320] (first compound max 10 µM, 7x7, partner max 1 µM)
tgt: PEO1 (Ovarian Carcinoma)
combination Emax: 0.242
--
compound: C[C@@H]1COCCN1c1cc(C2([S@](C)(=N)=O)CC2)nc(-c2ccnc3[nH]ccc23)n1 [AZD6738] + Nc1ccn([C@@H]2O[C@H](CO)[C@@H](O)C2(F)F)c(=O)n1 [Gemcitabine] (first compound max 10 µM, 7x7, partner max 0.3 µM)
tgt: PEO1 (Ovarian Carcinoma)
combination Emax: 0.696

Values were extracted from the supplement of paper PMC11061612.
